Tested on: Nucleic Acid
method: Inhibition of A73U tRNA(Tyr)-5'Rhd-AM1A T box antiterminator RNA complex assessed as reduction in anisotrophy changes by at 100 uM by fluorescence anisotropy-based assay relative to untreated control
Assay type: nucleic-acid assay
Think of 20% as a floor: if inhibition stands on it or above, it is Y; beneath it, N.

CCCCN(CCCC)Cc1cn(C2CCCCC2O)nn1 (configuration not stated) : Y
CN(CCc1ccccc1)Cc1cn(C2CCCCC2O)nn1 (configuration not stated) : Y
CCCCC(O)Cn1cc(CN2CCCC(C(=O)OCC)C2)nn1 (configuration not stated) : Y
CCCCC(O)Cn1cc(CN(CCCC)CCCC)nn1 (configuration not stated) : N
CCOC(=O)C1CCCN(Cc2cn(C3CCCCC3OC(=O)c3ccccc3)nn2)C1 (configuration not stated) : N
CC(C)CCN(C)Cc1cn(CC(O)c2ccccc2)nn1 (configuration not stated) : Y
CN(CCc1ccccc1)Cc1cn(CC(O)COC(=O)NCc2ccccc2)nn1 (configuration not stated) : Y
CCCCNC(=O)OCC(O)Cn1cc(CN2CCOCC2)nn1 (configuration not stated) : N
CCCCN(CCCC)Cc1cn(CC(O)COC(=O)NCc2ccccc2)nn1 (configuration not stated) : Y
CCCCC(O)Cn1cc(CN2CCOCC2)nn1 (configuration not stated) : N

Proceed to the following item.
## Input Is inhibition for CCCCNC(=O)OCC(O)Cn1cc(CN2CCCC(C(=O)OCC)C2)nn1 (configuration not stated) at or above 20%?
## Output Y
